Each recorded value in this set is attributed to patent US20240199546A1.

- targetSystem: human SLC6A19 and TMEM27 (Homo sapiens)
- Construct: expressed in transfected cells
- Sequence (Q695T7 whole entry): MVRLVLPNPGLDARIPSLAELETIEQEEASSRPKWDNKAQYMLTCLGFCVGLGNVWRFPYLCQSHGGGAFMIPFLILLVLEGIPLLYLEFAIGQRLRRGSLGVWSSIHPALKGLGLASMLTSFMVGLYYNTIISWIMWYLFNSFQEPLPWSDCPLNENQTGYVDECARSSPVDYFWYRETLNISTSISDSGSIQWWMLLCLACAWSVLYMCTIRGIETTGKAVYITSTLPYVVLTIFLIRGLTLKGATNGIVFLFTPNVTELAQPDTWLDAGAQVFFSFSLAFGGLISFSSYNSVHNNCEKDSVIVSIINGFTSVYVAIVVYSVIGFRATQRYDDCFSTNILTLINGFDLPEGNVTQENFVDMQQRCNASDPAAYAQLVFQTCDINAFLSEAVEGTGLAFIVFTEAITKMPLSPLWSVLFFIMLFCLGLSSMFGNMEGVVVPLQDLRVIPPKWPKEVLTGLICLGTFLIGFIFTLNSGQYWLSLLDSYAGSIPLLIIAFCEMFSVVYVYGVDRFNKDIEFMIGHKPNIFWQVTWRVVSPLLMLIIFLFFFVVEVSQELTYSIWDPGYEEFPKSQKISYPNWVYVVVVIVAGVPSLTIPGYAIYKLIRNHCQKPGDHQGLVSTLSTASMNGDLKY
- Sequence (Q9HBJ8 15-222 partner): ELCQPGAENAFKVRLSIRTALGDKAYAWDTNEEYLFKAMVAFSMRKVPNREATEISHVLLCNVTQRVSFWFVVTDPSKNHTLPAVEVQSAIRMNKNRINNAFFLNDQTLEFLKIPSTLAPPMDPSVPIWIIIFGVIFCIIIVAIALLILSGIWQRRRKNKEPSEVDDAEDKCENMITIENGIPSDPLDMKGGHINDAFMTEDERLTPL
- experimentalDetails: 13C6,15N-isoleucine uptake in CHO cells with doxycycline-inducible expression of human SLC6A19 and TMEM27, RapidFire mass spectrometry (Example B-2)
- Type: cell-based
- runConditions: read-out: SLC6A19_RapidFire Uptake Assay IC50
- Protocol: Assay ready vials of CHO cells with doxycycline inducible expression of human SLC6A19 and TMEM27 were thawed, plated in T175 flasks containing DMEM/F12 media, 10% FBS, 1% Penicillin-Streptomycin, 1× UltraGlutamate, 1 mM Sodium Pyruvate, Sodium Bicarbonate (7.5 mL of 7.5% solution in 500 mL media final), 5 μg/mL Blasticidin, 150 μg/mL Hygromycin B Gold, and 500 μg/mL G418, and incubated (humidified, 37° C. with 5% CO2) for 48 hours. […] Resuspended cells were counted using a Vi-Cell. […]
measurementName: pIC50
Lab note — pIC50 values are minus log10 of concentrations in M.

Take a look at these entries with their results.
• CC(=O)NCc1cc2cc(F)c(OCc3ccno3)cc2[nH]1 = 5.46
• CCC(=O)NCc1cc2ccc(NCc3ccccc3)cc2[nH]1 = 5.26
• CC1(C(=O)NCc2cc3ccc(OCc4nccs4)cc3[nH]2)CC1 = 6.72
• O=C(NCc1cc2ccc(OCc3ccon3)cc2[nH]1)N1CCC1 = 6.11

Shifting focus to the compound that follows.
Form field: reported pIC50 of Cn1ncc(COc2cc3[nH]c(CNC(=O)C4CC4)cc3cc2Cl)n1 7.04
